# System: HT1080 viability, ATPLite luminescence, overnight
# method_description: HT1080 parental cell cytotoxicity, SAR follow-up, cytotoxicity control for MT1-MMP activation inhibitor project, ATPLite luminescence (AID 652267)
Calls of active or inactive are those of the source.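 The calls were made as follows: active = compound that lowers ATP signal in parent HT1080 cells at potency within fivefold of its primary screen potency; inactive = the rest.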
Classes used: 1 (yes) = active, 0 (no) = inactive

In [3]: df
Out[3]:
                                   compound                                 tested_on  class_assignment
0  CN1/C(=C\C(=O)c2cncc(Br)c2)C(C)(C)c2ccccc21  HT1080 viability, ATPLite luminescence, overnight            0 (no)
1  COc1ccc(C)cc1Nc1nc(-c2c(C)[nH]c3ccccc23)cs1  HT1080 viability, ATPLite luminescence, overnight            0 (no)
2  CN1/C(=C/C=C/c2n(C)c3cc([N+](=O)[O-])c([N+](=O)[O-])cc3[n+]2C)C(C)(C)c2ccccc21  HT1080 viability, ATPLite luminescence, overnight            0 (no)
3  O=Nc1c(-c2c(O)[nH]c3cc(Br)ccc23)[nH]c2ccccc12  HT1080 viability, ATPLite luminescence, overnight            0 (no)
4  CCn1c(=O)c(=O)[nH]c2cc(C(=O)NC3CCCc4ccccc43)ccc21 (stereo unspecified)  HT1080 viability, ATPLite luminescence, overnight           1 (yes)
5  Cc1c(C(=O)OCC(=O)NCC2CCCO2)oc2ccccc12 (stereo unspecified)  HT1080 viability, ATPLite luminescence, overnight            0 (no)

Numbers sourced from PubChem BioAssay AID652267.
